These data points were gathered from PubChem BioAssay (NCI).

# Test system: OVCAR-8 ovarian
# Method: NCI tumour cell line growth inhibition, 48 h; in the data active means GI50 below about 0.43 µM; inactive means the rest
Where a SMILES comes first, the peptide text is derived from it. [ ]: non-standard residue; d: D form. NMeY = CN[C@@H](Cc1ccc(O)cc1)C(=O)O; dNMeF = CN[C@H](Cc1ccccc1)C(=O)O; Sar = CNCC(=O)O
Choose one outcome from this list and give only that: active, inactive

O=C(Nc1ccccc1)NS(=O)(=O)c1ccc(N2N=C3c4ccccc4CC3C2c2ccccn2)cc1 (stereo unspecified) : inactive
O=C(NNc1ccccc1)OCc1ccccc1 : inactive

q: GET /call?item= "CC(=O)O[C@H]1CC[C@]2(C)[C@H]3CC=C4[C@@H]5CC(C)(C)CC[C@]5(C(=O)NCCNCCN)CC[C@@]4(C)[C@]3(C)CC[C@H]2C1(C)C" returns the recorded outcome of this test.
a: inactive

q: GET /call?item= Nc1ccn(C2CC(O)C(CO)O2)c(=O)n1 (stereo unspecified) returns the recorded outcome of this test.
a: inactive

q: GET /call?item= "CO[C@H]1C[C@@H]2CC[C@@H](C)[C@@](O)(O2)C(=O)C(=O)N2CCCC[C@H]2C(=O)O[C@H]([C@H](C)C[C@@H]2CC[C@@H](OP(C)(C)=O)[C@H](OC)C2)CC(=O)[C@H](C)/C=C(\C)[C@@H](O)[C@@H](OC)C(=O)[C@H](C)C[C@H](C)/C=C/C=C/C=C/1C" returns the recorded outcome of this test.
a: active

q: GET /call?item= "COC(=O)c1ccc2c(c1)C(=O)c1c-2n(CCCN)c(=O)c2cc([N+](=O)[O-])ccc12" returns the recorded outcome of this test.
a: active

q: GET /call?item= CCC[CH2][Ge]([CH2]CCC)([CH2]CCC)[O]C(=O)C(OC)c1ccccc1 (stereo unspecified) returns the recorded outcome of this test.
a: inactive

q: GET /call?item= "O=Cc1ccc(Oc2c3ccccc3nc3occc23)cc1" returns the recorded outcome of this test.
a: inactive

q: GET /call?item= CC[C@H](C)[C@@H]1NC(=O)[C@H](Cc2ccc(O)cc2)N(C)C(=O)[C@H](Cc2ccccc2)NC(=O)CN(C)C(=O)[C@@H]2CCCN2C(=O)[C@@H](Cc2ccccc2)N(C)C(=O)[C@H](CC(C)C)NC1=O (cyclo(F[NMeY]IL[dNMeF]P[Sar])) returns the recorded outcome of this test.
a: active

q: GET /call?item= "COc1ccc2c(c1)sc1nc(-c3ccccc3)c(-c3ccc(O)c(OC)c3)n12" returns the recorded outcome of this test.
a: inactive

q: GET /call?item= "Cc1ncc(C(=O)Nc2ccc(CN3CCN(C)CC3)c(C(F)(F)F)c2)cc1C#Cc1cnc(N)c2ncccc12" returns the recorded outcome of this test.
a: inactive

q: GET /call?item= "CCOC(=O)Cn1c(C)c(/C=N/NC(=O)c2cc3c(ccc4ccccc43)o2)c2ccccc21" returns the recorded outcome of this test.
a: inactive

q: GET /call?item= "N#CSCc1c(Cl)cccc1Cl" returns the recorded outcome of this test.
a: inactive

q: GET /call?item= "Cc1ccc(N=Nc2c(N)nn(-c3ccccc3)c2N)cc1" returns the recorded outcome of this test.
a: inactive

q: GET /call?item= "N#Cc1cccc(/C=C(/C(=O)c2ccccc2)c2ccccc2)c1" returns the recorded outcome of this test.
a: inactive

q: GET /call?item= "CCCCCCCCCCCC[n+]1ccccc1" returns the recorded outcome of this test.
a: inactive

====

# Tested on: EKVX NSCLC
# Method: NCI tumour cell line growth inhibition, 48 h
Give GI50 for every item shown.

Worked examples, 3 compounds total:
Cc1cc2c3ccccc3ccc2[n+]2ccccc12 : 1220 nM
C#C[C@@]1(O)[C@@H](CO)O[C@@H](n2ccc3c(N)ncnc32)[C@@H]1O : 1520 nM
COc1cc(Cn2ccc3c2-c2oncc2CC3)cc(OC)c1 : 4300 nM

For the 3 compounds below, give their GI50 values.
1. O=C(OCC1OC(OC(=O)c2cc(O)c(O)c(OC(=O)c3cc(O)c(O)c(O)c3)c2)C(OC(=O)c2cc(O)c(O)c(OC(=O)c3cc(O)c(O)c(O)c3)c2)C(OC(=O)c2cc(O)c(O)c(OC(=O)c3cc(O)c(O)c(O)c3)c2)C1OC(=O)c1cc(O)c(O)c(OC(=O)c2cc(O)c(O)c(O)c2)c1)c1cc(O)c(O)c(OC(=O)c2cc(O)c(O)c(O)c2)c1 (stereo unspecified)
2. CCCCCCCCCCCC[n+]1ccccc1
3. CC1(C)CC(=O)c2c(ccc(C(=O)C[C@H](N)CO)c2N)O1

a:
["13500 nM", "936 nM", "> 33300 nM"]

====

# Tested on: SF-268 CNS
# Method: NCI tumour cell line growth inhibition, 48 h
Give GI50 for every item shown.

Worked examples, 3 compounds total:
COc1ccc2c(c1)sc1nc(-c3ccccc3)c(-c3ccc(O)c(OC)c3)n12 : 28.8 µM
COc1cc(Cn2ccc3c2-c2oncc2CC3)cc(OC)c1 : 10.1 µM
C[C@H]1[C@H](C)CC[C@]2(C(=O)O)CC[C@]3(C)C(=CC[C@@H]4[C@@]5(C)CC[C@H](OC(=O)/C=C/c6ccc(O)cc6)C(C)(C)[C@@H]5CC[C@]43C)[C@H]12 : 3.23 µM

// switching to the query compound
q: Fill blank: measured GI50 of the compound O=C(Nc1ccccc1)NS(=O)(=O)c1ccc(N2N=C3c4ccccc4CC3C2c2ccccn2)cc1 (centres undefined) is ____.
a: 62.1 µM

====

# Test system: RXF 393 renal
# Method: NCI tumour cell line growth inhibition, 48 h; in the data active = GI50 below about 0.43 µM; inactive = the rest
Choose one outcome from this list and give only that: TRUE = active, FALSE = inactive

Example entries begin here.
CO[C@H]1C[C@@H]2CC[C@@H](C)[C@@](O)(O2)C(=O)C(=O)N2CCCC[C@H]2C(=O)O[C@H]([C@H](C)C[C@@H]2CC[C@@H](OP(C)(C)=O)[C@H](OC)C2)CC(=O)[C@H](C)/C=C(\C)[C@@H](O)[C@@H](OC)C(=O)[C@H](C)C[C@H](C)/C=C/C=C/C=C/1C : TRUE
CN(C)C(=O)c1cc2cnc(Nc3ccc(-c4csc5c(=O)cc(N6CCNCC6)oc45)cc3)nc2n1C1CCCC1 : TRUE

q: GET /call?item= "O=C(O)c1cc(-c2ccc(-c3ccc(-c4cc(C(=O)O)c5cc(Cl)ccc5n4)cc3)cc2)nc2ccc(Cl)cc12" returns the recorded outcome of this test.
a: FALSE

====

# Test system: M14 melanoma
# Method: NCI tumour cell line growth inhibition, 48 h
Measurement label: GI50

Worked examples, 7 molecules total:
CC[C@H](C)[C@H](NC(=O)Nc1ccccc1)C(=O)N(C)[C@H](C[C@@H](OC(C)=O)c1nc(C(=O)N[C@@H](Cc2ccccc2)C[C@H](C)C(=O)OC)cs1)C(C)C : 2.19 µM
CN(C)C(=O)c1cc2cnc(Nc3ccc(-c4csc5c(=O)cc(N6CCNCC6)oc45)cc3)nc2n1C1CCCC1 : 0.99 µM
O=C(NNc1ccccc1)OCc1ccccc1 : 2.81 µM
COc1ccc(/C=C/C(=O)c2ccc3cc(OC)c(OC)cc3c2)cc1OC : 5.47 µM
O=Cc1ccc(Oc2c3ccccc3nc3occc23)cc1 : 15.9 µM
O=C1c2ccccc2-c2n[nH]c3cccc1c23 : 5.03 µM
Nc1nc(N)c2c(ccc3nccc32)[nH]1 : 1.92 µM

// switching to the query molecule
q: Fill blank: measured GI50 of the molecule "CO[C@H]1C[C@@H]2CC[C@@H](C)[C@@](O)(O2)C(=O)C(=O)N2CCCC[C@H]2C(=O)O[C@H]([C@H](C)C[C@@H]2CC[C@@H](OP(C)(C)=O)[C@H](OC)C2)CC(=O)[C@H](C)/C=C(\C)[C@@H](O)[C@@H](OC)C(=O)[C@H](C)C[C@H](C)/C=C/C=C/C=C/1C" is ____.
a: 11.8 µM

====

Give TGI for every item shown.
# System: SN12C renal
# Method: NCI tumour cell line growth inhibition, 48 h
One number for each entry, in µM.

Cc1cc2c3ccccc3ccc2[n+]2ccccc12 : 7.29
CCCN(CCC)c1cc2c(cc1F)c(=O)c(C(=O)O)cn2-c1ccc(N2CCN(C)CC2)cn1 : 46
COc1cc2c(c(OC)c1OC)-c1ccc(SC)c(=O)cc1[C@@H](NCc1cccc(C#N)c1)CC2 : 66.1
C[C@H]1[C@H](C)CC[C@]2(C(=O)O)CC[C@]3(C)C(=CC[C@@H]4[C@@]5(C)CC[C@H](OC(=O)/C=C/c6ccc(O)cc6)C(C)(C)[C@@H]5CC[C@]43C)[C@H]12 : 5.65
CCN(CC)CCCOc1cc(O)c2c(=O)cc(-c3ccccc3)oc2c1 : 22.8

For the 2 molecules below, give their TGI values.
1. CC#Cc1cc2c(cc1O)CC[C@@H]1[C@@H]2CC[C@]2(C)[C@@H](O)CC[C@@H]12
2. O=C1c2ccccc2C(=O)c2c1ccc(C(=O)O)c2-c1ccc2ccccc2c1

a:
1: 22.8; 2: 88.8

For the 2 molecules below, give their TGI values.
1. O=C(OCC1OC(OC(=O)c2cc(O)c(O)c(OC(=O)c3cc(O)c(O)c(O)c3)c2)C(OC(=O)c2cc(O)c(O)c(OC(=O)c3cc(O)c(O)c(O)c3)c2)C(OC(=O)c2cc(O)c(O)c(OC(=O)c3cc(O)c(O)c(O)c3)c2)C1OC(=O)c1cc(O)c(O)c(OC(=O)c2cc(O)c(O)c(O)c2)c1)c1cc(O)c(O)c(OC(=O)c2cc(O)c(O)c(O)c2)c1 (configuration not stated)
2. COc1ccc([C@H]2C=C(c3cc(F)c(Cl)cc3Cl)NC(=S)N2)cc1

a:
29.8
57.1
